meta.source: patent US11220496B2

For each record, write down the corresponding pIC50.
# procedure_details: Human primary T-cell proliferation stimulated by IL-2 (CellTiter-Glo)
# Assay type: cell-based
# conditions_used: primary human T-cells, IL-2 stimulated proliferation, 72 hours, ATP readout; read-out: Activity (IC50, inhibition of JAK3 activity)
pIC50: −log10 of the molar value. Structures can show the parent of a compound that is named as a salt.

Take a look at these entries with their results.
Cc1cnc(Nc2ccc(C(=O)Nc3ccccc3)cc2)nc1Nc1ccc2oc(=O)[nH]c2c1	> 6.30
Cc1ccc(Nc2ncc(C)c(Nc3ccc4oc(=O)[nH]c4c3)n2)cc1C	> 6.30
Cc1cnc(Nc2ccc3cnoc3c2)nc1Nc1ccc2oc(=O)[nH]c2c1	> 6.30
Cc1cnc(Nc2cc(C)c(C)c(C)c2)nc1Nc1ccc2oc(=O)n(COP(=O)(O)O)c2c1 [Compound A17, bis-sodium salt]	5.30 to 6.30

For the 3 compounds below, give their pIC50 values.
1. COc1cc(Nc2ncc(C)c(Nc3ccc4oc(=O)n(COP(=O)(O)O)c4c3)n2)cc(C)c1F [Compound A16, phosphate]
2. Cc1cc(CF)cc(Nc2ncc(C)c(Nc3ccc4oc(=O)[nH]c4c3)n2)c1
3. COc1cc(Nc2ncc(C)c(Nc3ccc4oc(=O)[nH]c4c3)n2)cc(Cl)c1OC

Resp:
["5.30 to 6.30", "> 6.30", "> 6.30"]
